Reference source for all entries: PubChem BioAssay (Tox21)

- measured.target: Cytochrome P450 2D6 (Homo sapiens) (UniProt P10635)
- Sequence (P10635 whole entry, looked up): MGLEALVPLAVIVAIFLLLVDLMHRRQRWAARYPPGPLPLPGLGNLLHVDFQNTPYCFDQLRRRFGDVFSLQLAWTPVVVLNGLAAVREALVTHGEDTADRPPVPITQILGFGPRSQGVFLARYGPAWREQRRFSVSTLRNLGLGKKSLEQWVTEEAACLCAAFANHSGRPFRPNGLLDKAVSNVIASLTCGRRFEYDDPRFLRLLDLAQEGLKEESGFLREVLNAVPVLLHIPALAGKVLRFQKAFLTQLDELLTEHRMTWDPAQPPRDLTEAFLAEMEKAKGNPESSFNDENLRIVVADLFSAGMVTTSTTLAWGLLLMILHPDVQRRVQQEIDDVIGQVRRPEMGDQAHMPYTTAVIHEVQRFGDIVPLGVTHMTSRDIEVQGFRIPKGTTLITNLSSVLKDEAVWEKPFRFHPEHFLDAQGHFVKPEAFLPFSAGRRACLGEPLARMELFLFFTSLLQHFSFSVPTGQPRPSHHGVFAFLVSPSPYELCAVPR
- assay.text: Cytochrome P450 Family 2 Subfamily D Member 6 (CYP2D6) small molecule antagonists: luciferase reporter qHTS assay (AID 1671196); further: nearly all actives have a fitted effect of over 50% in size
- measurement.context: P450-Glo CYP2D6 enzyme assay, luciferin luminescence, 1 h; series mostly up to 115 µM
- Description: U.S. Tox21 Program National Center for Advancing Translational Sciences [NCATS] U.S. Environmental Protection Agency [EPA] National Institutes of Environmental Health Sciences [NIEHS] National Toxicology Program [NTP] U.S. Food and Drug Administration [FDA] […] The luciferin products formed are detected with a luciferin detection reagent, and the amount of light produced is proportional to CYP activity. […]
Results filed as inconclusive are left out. Calls of active or inactive are those of the source. The call rests on the fitted dose curve; in most records, active means well fitted inhibition curve with a large enough effect in the repeat runs; inconclusive means weak or mixed curves; inactive means no such curve, though single readings can be large or run the other way.
observed.property: outcome

OC1OCCOC1O (configuration not stated): inactive
CC1CC(=O)CC(C)(C)C1 (configuration not stated): inactive
CCC/C=C(\C=O)CC: inactive
COC(=O)CCCCC(CCSS/C(CCO)=C(\C)N(C=O)Cc1cnc(C)nc1N)SC(C)=O (configuration not stated): inactive
O=C[O][Al]([O]C=O)[O]C=O: inactive
CCCCCC/C=C/C(=O)OC: inactive

Provide measured outcome on Cytochrome P450 2D6 (Homo sapiens) (UniProt P10635) for CC1CCc2c(N3CCC(O)CC3)c(F)cc3c(=O)c(C(=O)O)cn1c23 (configuration not stated) please.
inactive
